- System: MS2 coat protein
- test_details: apparent KD of MS2 coat protein; designed switch direction (-1 OFF switch, 1 ON switch): -1; higher = weaker reporter binding
- setup_conditions: input ligand: FMN 200 uM
Label scheme, based on apparent KD of MS2 coat protein: bin 1 (below 90 nM), bin 2 (90 nM to below 200 nM), bin 3 (200 nM or more)

{"chain_sequence": "GGAUCAUAUGUCAGGAUAUGCAGGUCCUUGGAUCUGCAGAAGGGACAUGAGGAUCACCCAUGUCAUGUAGAUCC [Mat - Exclusion 4 - Eli Mod - D54] (Eterna round: R97, puzzle: Brourd's mod of Exclusion 4)", "test_system": "MS2 coat protein", "category_label": "bin 2"}
{"chain_sequence": "UUUGUUUAUGUAGGAUAUGCCUGGCGUGCCUUUGCAGAAGGACAUGAGGAUCACCCAUGUAUUGCGGUCUGCGUUCAGAUCGCC [salish99_ExNG1_r4_036] (Eterna round: R96, puzzle: Exclusion NG 1)", "test_system": "MS2 coat protein", "category_label": "bin 1"}
{"chain_sequence": "CAACGAAGUCGAGGAUAUGCCCACUCCGCAGCGGCAGAAGGCGACAUGAGGAUCACCCAUGUAACGGCUAACGGGAUGGGAAGG [Eternabot solution 7] (Eterna round: R96, puzzle: Exclusion NG 1)", "test_system": "MS2 coat protein", "category_label": "bin 2"}
{"chain_sequence": "UGUAUCCGAGGAUAUCGCUUGAGGGACAUGAGGAUCACCCAUGUGAAGAAAAGCGUCCCGCGAGAAGGCGGACCCA [EX5 B.24] (Eterna round: R97, puzzle: Exclusion 5)", "test_system": "MS2 coat protein", "category_label": "bin 2"}
{"chain_sequence": "UAACAACAUGAGGAUCACCCAUGUGAGGAUAUGUACGUUCGUUGGCGAACCUUGUUCCGCAGAAGGCAUGUGGG [Eternabot (L1) Solution 28] (Eterna round: R97, puzzle: Exclusion 1)", "test_system": "MS2 coat protein", "category_label": "bin 3"}
{"chain_sequence": "ACAUGAGGAUCACCCAUGUGCCCAUCUAGCACAUGUCCUCGCUAGGAUAUGUAGGCCUCGACGCCGCAGAAGGAGCUAAAAGAG [Raatlaan] (Eterna round: R96, puzzle: Exclusion NG 3)", "test_system": "MS2 coat protein", "category_label": "bin 2"}
{"chain_sequence": "GAGUACAGAGGAUAUACAUGAGGAUCACCCAUGUGUUUCAGCUAGGAGACUAGCGAAAGUAGAAGGCUGUACUU [salish99_ex3_r4_005] (Eterna round: R97, puzzle: Exclusion 3)", "test_system": "MS2 coat protein", "category_label": "bin 1"}
{"chain_sequence": "GACCCAACCGUUAGGAUAUAGUCGACCUACGGCGACUAGAAGGAACAUGAGGAUCACCCAUGUGUGCGCACAAC [Eternabot (Original) Solution 25] (Eterna round: R97, puzzle: Brourd's mod of Exclusion 4)", "test_system": "MS2 coat protein", "category_label": "bin 2"}
{"chain_sequence": "GCAGAGGUAGUGAGGAUAUGCUCUACCUCGGUAGAGCAGAAGGCACAUGAGGAUCACCCAUGUGAUUCUUCUGC [Omei Ex4B B9] (Eterna round: R97, puzzle: Brourd's mod of Exclusion 4)", "test_system": "MS2 coat protein", "category_label": "bin 1"}
{"chain_sequence": "AACCUGUCAGGAUAUCAAUUCUGUGCGUGACUACAGGACGCUGAGAAGGGACAUGAGGAUCACCCAUGUUGACU [Eternabot (Original) Solution 33] (Eterna round: R97, puzzle: Exclusion 4)", "test_system": "MS2 coat protein", "category_label": "bin 1"}
{"chain_sequence": "AUGGGUCGGGAGGAUAUUCGGGCUCAUGGGCUUGGAGAAGGCUCGACAUGAGGAUCACCCAUGUAAGUGUUCUU [-25, -23.1 kcal, A 22%] (Eterna round: R97, puzzle: Exclusion 6)", "test_system": "MS2 coat protein", "category_label": "bin 3"}
{"chain_sequence": "GAUCCUUCUGUUAGGAUAUGCUUCGGGCUUCCGCUGCAGAAGGAACAUGAGGAUCACCCAUGUCAAAUAAAAUC [JL-BMX4-4.38 ViennaUCT mod] (Eterna round: R97, puzzle: Brourd's mod of Exclusion 4)", "test_system": "MS2 coat protein", "category_label": "bin 1"}
{"chain_sequence": "CCUCUGUCAGGAUAUCGUGCAUACAACGAAAGUUCUAUGUGCGAGAAGGGACAUGAGGAUCACCCAUGUUUGCG [Omei Ex4 A21] (Eterna round: R97, puzzle: Exclusion 4)", "test_system": "MS2 coat protein", "category_label": "bin 3"}
{"chain_sequence": "AAAGACAUGAGGAUCACCCAUGUACUGGUGGAGCUCGUGAGGCAGGAUAUCGCGUGCGAAGCUCGCGAGAAGGGCCAGGAAUUU [Cexela] (Eterna round: R96, puzzle: Exclusion NG 3)", "test_system": "MS2 coat protein", "category_label": "bin 3"}
{"chain_sequence": "AGCGAGGCAGGAUAUACAUGAGGAUCACCCAUGUACUUGUAUGGCGUGGAACAUCGUGGUAGAAGGGCCGUGCC [EX3 #80] (Eterna round: R97, puzzle: Exclusion 3)", "test_system": "MS2 coat protein", "category_label": "bin 2"}
{"chain_sequence": "AUAAUGUGAGGAUAUCAGUCGACUAGCUGCGGCUAGUCGACUGAGAAGGUACAUGAGGAUCACCCAUGUGGUUC [E4/11-B3] (Eterna round: R97, puzzle: Exclusion 4)", "test_system": "MS2 coat protein", "category_label": "bin 3"}
{"chain_sequence": "UAGAUGGGAGGAUAUGCAUAGAUACAGAUUCAUGUAGUGCUACAUGAGGAUCACCCAUGUAGAAGGCCCGUCUU [JL-ex2-2.20 Mayanne mod] (Eterna round: R96, puzzle: Exclusion 2)", "test_system": "MS2 coat protein", "category_label": "bin 3"}
{"chain_sequence": "UUUUUACAUGAGGAUCACCCAUGUCAGGAUAUCCUUAUAUUUUAUUAUUUUAUUUUUUGGAGAAGGGACUAUUA [My solution] (Eterna round: R96, puzzle: Exclusion 1)", "test_system": "MS2 coat protein", "category_label": "bin 3"}
